Sourced from PubChem BioAssay (EPA / NIEHS)

- protocolText: CCTE_Shafer_MEA_dev_burst_duration_mean: CCTE's Neural Network Formation Assay for Mean Burst Duration, Shafer Lab (AID 2284045)
Activity calls are given as the source filed them. How the source made its calls: active means hit-call score of the fitted dose curve at least 0.9, where 1 is the maximum; inactive means score below 0.9.
One label from this list, please: active, inactive

Enquiry: What classification did `c1cc2ccc3ccc4ccc5cccc6c(c1)c2c3c4c56` end up with in this test?
Return: inactive

Enquiry: Would you kindly repeat that for `c1ccc2cc3c4ccccc4c4ccccc4c3cc2c1` ?
Return: inactive

Enquiry: Would you kindly repeat that for CNCCC(Oc1ccc(C(F)(F)F)cc1)c1ccccc1 (stereo not drawn) ?
Return: active

Enquiry: Would you kindly repeat that for `Cc1c(O)cccc1C(=O)N[C@@H](CSc1ccccc1)[C@H](O)CN1C[C@H]2CCCC[C@H]2C[C@H]1C(=O)NC(C)(C)C` ?
Return: active

Enquiry: Would you kindly repeat that for CN(C)CCC(c1ccc(Cl)cc1)c1ccccn1 (stereo not drawn) ?
Return: inactive

Enquiry: Would you kindly repeat that for `CC1(C)S[C@@H]2[C@H](NC(=O)[C@H](N)c3ccc(O)cc3)C(=O)N2[C@H]1C(=O)O` ?
Return: inactive

Enquiry: Would you kindly repeat that for `CC1(C)S[C@@H]2[C@H](NC(=O)[C@H](N)c3ccccc3)C(=O)N2[C@H]1C(=O)O` ?
Return: active

Enquiry: Would you kindly repeat that for `[Cl-].[Cl-].[NH2-].[NH2-].[Pt+4]` ?
Return: inactive
